System: biotinyl-Leu-oxazolone
Test: self-aminoacylation, catalytic enhancement (BLO) (fold over background); higher = more active; k-Seq, kA / k0A0; sequences stand for … in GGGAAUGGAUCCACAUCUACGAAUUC…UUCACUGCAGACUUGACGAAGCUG
Variants at the floor of the assay were thinned out.
Please note: True applies when self-aminoacylation is 1 or greater, and False applies otherwise.

The following sequences have reported results that may help.
INSERT INTO results (sequence_string, assayed_target, assigned_category) VALUES
  ('AUUCACCUAGGUCAUGUGGUG [Fam2.2 aminoacylation ribozyme variant]', 'biotinyl-Leu-oxazolone', 'True'),
  ('CUACUUCAACCAAUCGGUCCG [Fam1A.1 aminoacylation ribozyme variant]', 'biotinyl-Leu-oxazolone', 'True'),
  ('CUACUUCAAACAUUCGGUAUG [Fam1A.1 aminoacylation ribozyme variant]', 'biotinyl-Leu-oxazolone', 'True');

Okay, next one:
In: Please tell me: is the sequence CUAUUUAAAACAAUCGGUCUG [Fam1A.1 aminoacylation ribozyme variant] at or over 1 in terms of self-aminoacylation?
Out: False
